system: Escherichia coli TOP10; experiment: shrunken log2 fold change of peptide-encoding DNA abundance (4.5 h post-induction vs induction); higher = less antimicrobial activity (less host growth inhibition); conditions: time post-induction: 4.5 h; library: site-saturation at positions 5, 18, 19, 20;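 further: peptides expressed intracellularly from a pBAD plasmid library in pooled LB shake-flask culture, induced with 0.3% L-arabinose, DNA abundance read by NGS, three biological replicates, DESeq2 with apeglm shrinkage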
Each entry falls in a class defined on shrunken log2 fold change; the bands are band 1: < -0.1; band 2: ≥ -0.1 and < 0.03; band 3: ≥ 0.03

Exercise: Could you place RRIRKRPPRLPRPRPRPQFWPRP in its proper category? Many thanks.
Solution: band 3

Exercise: Also check RRIRNRPPRLPRPRPRPFLEPRP
Solution: band 3

Exercise: Also check RRIRQRPPRLPRPRPRPPNRPRP
Solution: band 1

Exercise: Also check RRIRIRPPRLPRPRPRPMWAPRP
Solution: band 2

Exercise: Also check RRIRSRPPRLPRPRPRPLWMPRP
Solution: band 2
